System: hepatocytes
testDetails: RNA-seq of hepatocytes treated with Phase III failure compounds
protocolConditions: gene ANKS4B; hepatocytes
outcomeMeasure: RNA-seq results: ANKS4B expression

{"columns": ["compound", "experimentalResult"],
 "data": [
  ["Cn1cnc2c(F)c(Nc3ccc(Br)cc3Cl)c(C(=O)NOCCO)cc21 [Selumetinib]", "−0.06"],
  ["O=P(O)(NCCCl)NCCCl [Palifosfamide]", "−0.16"],
  ["CCN(CC)CCN(Cc1ccc(-c2ccc(C(F)(F)F)cc2)cc1)C(=O)Cn1c(SCc2ccc(F)cc2)nc(=O)c2c1CCC2 [Darapladib]", "−0.52"],
  ["COc1cc(Nc2ncc(F)c(Nc3ccc4c(n3)N(COP(=O)(O)O)C(=O)C(C)(C)O4)n2)cc(OC)c1OC [fostamatinib]", 0.49]
]}

###

Tested on: hepatocytes
testDetails: RNA-seq of hepatocytes treated with Phase III failure compounds
protocolConditions: gene BRAF; hepatocytes
Where a name gives a salt, the structure may show the parent alone.
Note to self: values exactly at 0.2 are YES. So BRAF expression, RNA-seq result at or above 0.2 is YES, below is NO.

{"columns": ["molecule", "cat"],
 "data": [
  ["COCCOc1ccc(N2CCN(CCn3ncc4c3nc(N)n3nc(-c5ccco5)nc43)CC2)cc1", "YES"],
  ["O=C(N[C@H]1CN2CCC1CC2)c1cc2cccc(Cl)c2s1 [EVP-6124 (hydrochloride) (encenicline), encenicline]", "NO"],
  ["COc1cccc2c1C(=O)c1c(O)c3c(c(O)c1C2=O)C[C@@](O)(/C(CO)=N/NC(=O)CCCCCN1C(=O)C=CC1=O)C[C@@H]3O[C@H]1C[C@H](N)[C@H](O)[C@H](C)O1", "NO"],
  ["COc1nc(N)nc2c1ncn2[C@@H]1O[C@H](COP(=O)(N[C@@H](C)C(=O)OCC(C)(C)C)Oc2cccc3ccccc23)[C@@H](O)[C@@]1(C)O (stereo partly drawn)", "NO"],
  ["C=CC(=O)Nc1cccc(Nc2nc(Nc3ccc(N4CCN(C(C)=O)CC4)cc3OC)ncc2C(F)(F)F)c1 [CO-1686 (Rociletinib), Rociletinib]", "YES"]
]}

###

System: hepatocytes
testDetails: RNA-seq of hepatocytes treated with Phase III failure compounds
protocolConditions: gene CD81; hepatocytes
Description: RNA-seq was performed to determine the effects of the compounds on hepatocytes. Significance was determined by the criteria of FPKM≥0.5, a log 2(fold-change)≥1, and a […].
The following compounds are shown together with reported CD81 expression, RNA-seq result values.
outcomeMeasure: CD81 expression, RNA-seq result

{"columns": ["compound", "outcomeMeasure", "experimentalResult"],
 "data": [
  ["COc1cccc2c1C(=O)c1c(O)c3c(c(O)c1C2=O)C[C@@](O)(/C(CO)=N/NC(=O)CCCCCN1C(=O)C=CC1=O)C[C@@H]3O[C@H]1C[C@H](N)[C@H](O)[C@H](C)O1", "CD81 expression, RNA-seq result", 0.46],
  ["CN(C)[C@@H]1C(O)=C(C(N)=O)C(=O)[C@@]2(O)C(O)=C3C(=O)c4c(O)c(NC(=O)CN5CCCC5)cc(F)c4C[C@H]3C[C@@H]12 [TP-434 (Eravacycline), Eravacycline]", "CD81 expression, RNA-seq result", 0.17],
  ["C=CC(=O)Nc1cccc(Nc2nc(Nc3ccc(N4CCN(C(C)=O)CC4)cc3OC)ncc2C(F)(F)F)c1 [CO-1686 (Rociletinib), Rociletinib]", "CD81 expression, RNA-seq result", 0.02]
]}
